Tested on: Aorta
Assay: Vasorelaxation activity in Sprague-Dawley rat aortic assessed as inhibition of phenylephrin-induced contraction
Format: functional, tissue-based
Each entry below carries its reported pIC50.
# pIC50 is unitless: minus log10 of the molar concentration; print number only

Examples from the recorded data:
COc1cc(-c2oc3cc(O)cc(O)c3c(=O)c2O[C@@H]2O[C@H](CO)[C@@H](O)[C@H](O)[C@H]2O)ccc1O    4.63
COc1cc2c(cc1OC)-c1c3c(cc4c1[C@H](C2)N(C)CC4)OCO3    7.10
COC1=C[C@@]23CCN(C)[C@@H](Cc4cc(OC)c(OC)cc42)C3=CC1=O    4.54
CN1CCc2cc3c(c4c2[C@@H]1Cc1cc2c(cc1-4)OCO2)OCO3    6.54
COC1=C[C@@]23CCN(C)[C@@H](Cc4ccc(OC)c(O)c42)C3=CC1=O    4.48

Data request: # get_value(readout='pIC50', item= COc1cc(-c2oc3cc(O)cc(O)c3c(=O)c2O[C@@H]2O[C@H](CO[C@@H]3O[C@@H](C)[C@H](O)[C@@H](O)[C@H]3O)[C@@H](O)[C@H](O)[C@H]2O)ccc1O [NARCISSIN] )
Data returned: 4.77

Data request: # get_value(readout='pIC50', item= COc1ccc2c(c1C(=O)O)-c1c3c(c(OC)c4c1[C@H](C2)NCC4)OCO3 )
Data returned: 5.61

Data request: # get_value(readout='pIC50', item= COc1ccc2c(c1OC)-c1c3c(c(OC)c4c1[C@H](C2)NCC4)OCO3 )
Data returned: 4.78

Data request: # get_value(readout='pIC50', item= COc1cc2c(cc1O)C(=O)c1nccc3c(OC)c4c(c-2c13)OCO4 )
Data returned: 4.49

Data request: # get_value(readout='pIC50', item= COc1cc2c(cc1O)C[C@@H]1NCCc3c(OC)c4c(c-2c31)OCO4 )
Data returned: 7.05

Hello, the source for this data is ChEMBL document CHEMBL1144774, in case you need it.
